# Experiment Summary: Solubility test in distilled water
# Assay type: physicochemical
# Stated Conditions: thermodynamic from solid; 19° C.; distilled water added to 5.4 mg of sample

Molecule | solubility
CCCCCCCCNC1C=C(CO)C(O)C(O)C1O (stereo not shown) | > 108 mg/mL

====

# Experiment Summary: Solubility test in distilled water
# Type: physicochemical
# Stated Conditions: distilled water, water, thermodynamic from solid; 24° C.

Compound | solubility
CCCCCCCCN[C@@H]1C=C(CO)[C@H](O)[C@H](O)[C@H]1O [Substance A-2] | ≥ 300 mg/mL

// data source = patent US7485755B2
